Value source: patent US20140256793A1

- Tested on: N2a cells
- Experimental Protocol: Measurement of exosome release from N2a cells after siRNA, C6-ceramide or bacterial SMase treatment (Western blot)
- Format: cell-based, murine
- Conditions: Stealth RNAi siRNA, Western blot of exosome markers
Outcome Measure: exosome release / secretion after siRNA knockdown

[[record]]
substance = "SMS1 siRNA: Stealth RNAi siRNA (Invitrogen) for SMS1, sense 5′-AUACAUUGUAAUACACCGAUACAGG-3′ (antisense CCUGUAUCGGUGUAUUACAAUGUAU; Commercial Stealth RNAi siRNA, modifications not given here)"
measured_result = "significant increases"

[[record]]
substance = "aSMase siRNA: Stealth RNAi siRNA (Invitrogen) for aSMase, sense 5′-AUUGGUUUCCCUUUAUGAAGGGAGG-3′ (antisense CCUCCCUUCAUAAAGGGAAACCAAU; Commercial Stealth RNAi siRNA, modifications not given here)"
measured_result = "did not change"

[[record]]
substance = "SMS2 siRNA: Stealth RNAi siRNA (Invitrogen) for SMS2, sense 5′-AUACAUAGUUAUACAGCGAUACAGG-3′ (antisense CCUGUAUCGCUGUAUAACUAUGUAU; commercial Stealth RNAi siRNA, chemistry not given here)"
measured_result = "significant increases"

[[record]]
substance = "nSMase1 siRNA: Stealth RNAi siRNA (Invitrogen) for nSMase1, sense 5′-AAUAGAACCACAUCUGCAUUCUUGG-3′ (antisense CCAAGAAUGCAGAUGUGGUUCUAUU; Commercial Stealth RNAi siRNA, modifications not given here)"
measured_result = "did not change"

